Assign EC50 to each entry below.
assayed.target: UniProt:P08172
Sequence (P08172 whole entry): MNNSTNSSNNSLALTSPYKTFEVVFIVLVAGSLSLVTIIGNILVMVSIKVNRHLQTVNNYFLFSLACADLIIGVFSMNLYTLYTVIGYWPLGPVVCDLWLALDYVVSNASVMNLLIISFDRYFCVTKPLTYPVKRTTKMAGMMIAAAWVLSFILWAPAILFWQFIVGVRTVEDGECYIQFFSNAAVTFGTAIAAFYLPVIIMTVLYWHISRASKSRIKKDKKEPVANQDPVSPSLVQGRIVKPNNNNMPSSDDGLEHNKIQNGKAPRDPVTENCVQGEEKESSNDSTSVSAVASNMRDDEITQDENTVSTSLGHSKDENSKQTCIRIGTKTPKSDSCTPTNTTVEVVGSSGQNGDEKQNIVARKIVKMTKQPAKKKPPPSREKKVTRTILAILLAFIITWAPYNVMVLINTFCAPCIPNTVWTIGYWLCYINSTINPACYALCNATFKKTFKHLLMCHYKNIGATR
protocol.notes: Alphascreen Surefire phospho-ERK1/2 functional assay, M2
Format: cell-based
test.parameters: CHO cells stably expressing human M2, read-out: pEC50 M2 (converted)
Numbers only, in nM.

# example entries with known answers
1) CCOC(=O)N1CC2CCC1CC2N1CCC2(CC1)CNC(=O)C2 (single isomer, unassigned) [Example 3-1 Isomer 1] | 10
2) CC#CCOC(=O)N1C2CCC1CC(N1CCC3(CC1)CNC(=O)C3)C2 (single isomer, unassigned) [Example 2-5 Isomer 1] | 158

# input for lookup
Data point: CCOC(=O)N1CC2CC(N3CCC4(CC3)CNC(=O)C4)CC1C2 (single isomer, unassigned) [Example 6-2 Isomer 2] ; EC50 = 15.8

----------
Would you kindly list EC50 for each of these compounds?
assayed.target: human muscarinic M1 receptor (Homo sapiens, UniProt P11229)
protocol.notes: Alphascreen Surefire phospho-ERK1/2 functional assay, M1
Format: cell-based
test.parameters: CHO cells stably expressing human M1, read-out: pEC50 M1 (converted)
One number for each entry, in nM.

The cases that follow already have their EC50 on record.
1. CCSC(=O)N1C2CCC1CC(N1CCC3(CC1)CNC(=O)C3)C2 (single isomer, unassigned) [Example 2-35 Isomer 2] | 794
2. CCOC(=O)N1C2CCC1CC(N1CCC3(CC1)CC(=O)N(CC(C)C)C3)C2 (single isomer, unassigned) [Example 2-27 Isomer 2] | 398
3. COC(=O)N1C2CCC1CC(N1CCC3(CC1)CNC(=O)C3)C2 (single isomer, unassigned) [Example 2-1 Isomer 2] | 631
4. CCOC(=O)N1C2CCCC1CC(N1CCC3(CC1)CNC(=O)O3)C2 (single isomer, unassigned) [Example 5-4 Isomer 1] | 398
5. CCOC(=O)N1C2CCC1CC(N1CCC3(CC1)CC(=O)NC3Cc1ccccc1)C2 (single isomer, unassigned) [Example 2-10 Isomer 1] | 20

The following compounds each have a reported value; give each one's EC50.
1. [2H]C([2H])(C)OC(=O)N1C2CCC1CC(N1CCC3(CC1)CNC(=O)C3)C2 (single isomer, unassigned) [Example 2-30 Isomer 1]
2. [2H]C([2H])([2H])C([2H])([2H])OC(=O)N1C2CCC1CC(N1CCC3(CC1)CNC(=O)C3)C2 (single isomer, unassigned) [Example 2-32 Isomer 2]
3. CCOC(=O)N1CC2CCC1CC2N1CCC2(CC1)OC(=O)NC2CC (single isomer, unassigned) [Example 3-3 Isomer 2]

A)
1: 126; 2: 31.6; 3: 794

Quick one: give me EC50 for each item below, same order please.
1. CCCC1NC(=O)CC12CCN(C1CC3CCC(C1)N3C(=O)OCC)CC2 (single isomer, unassigned) [Example 2-9 Isomer 1]
2. CCOC(=O)N1C2CCC1CC(N1CCC3(CC1)CC(=O)NC3Cc1ccccc1)C2 (single isomer, unassigned) [Example 2-10 Isomer 2]
3. CCOC(=O)N1C2CCC1CC(N1CCC3(CC1)CC(=O)N(C(C)C)C3)C2 (single isomer, unassigned) [Example 2-26 Isomer 2]
4. CCOC(=O)N1CC2CCC1CC2N1CCC2(CC1)CNC(=O)C2 (single isomer, unassigned) [Example 3-1 Isomer 2]
5. CCOC(=O)N1C2CCC1CC(N1CCCC3(CC1)CNC(=O)C3)C2 (single isomer, unassigned) [Example 9-1 Isomer 2]

A)
1: 5.01; 2: 63.1; 3: 631; 4: 63.1; 5: 3.98

----------
assayed.target: UniProt P11229
Sequence (P11229 1-460): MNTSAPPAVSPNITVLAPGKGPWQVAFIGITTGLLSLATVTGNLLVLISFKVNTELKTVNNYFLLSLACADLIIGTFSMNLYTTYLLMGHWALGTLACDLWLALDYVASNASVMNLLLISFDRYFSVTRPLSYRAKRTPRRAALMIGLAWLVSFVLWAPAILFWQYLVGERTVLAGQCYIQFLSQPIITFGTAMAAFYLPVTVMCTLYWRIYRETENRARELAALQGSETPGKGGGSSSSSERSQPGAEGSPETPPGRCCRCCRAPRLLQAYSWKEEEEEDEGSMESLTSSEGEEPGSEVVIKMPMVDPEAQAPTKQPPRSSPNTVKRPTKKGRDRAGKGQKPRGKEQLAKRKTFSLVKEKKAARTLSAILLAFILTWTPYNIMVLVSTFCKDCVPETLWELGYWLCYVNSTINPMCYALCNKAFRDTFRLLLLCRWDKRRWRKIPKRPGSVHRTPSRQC
protocol.notes: Alphascreen Surefire phospho-ERK1/2 functional assay, M1
Type: cell-based
test.parameters: CHO cells stably expressing human M1, read-out: pEC50 M1 (converted)
outcome.measure: log10 of EC50 (log10 of the value in nM)
Units before log transform: nM; reported quantity: EC50; transform: log10.

Worked cases, answers included:
1. CCOC(=O)N1CC2CCC1CC2N1CCC2(CC1)CNC(=O)C2 (single isomer, unassigned) [Example 3-1 Isomer 1] | 0.10
2. CCOC(=O)N1CC2CCC1CC2N1CCC2(CC1)CNC(=O)O2 (single isomer, unassigned) [Example 3-2 Isomer 1] | 2.40
3. COC(=O)N1CC2CC(N3CCC4(CC3)CNC(=O)C4)CC1C2 (single isomer, unassigned) [Example 6-1 Isomer 1] | 3.40

Fill in log10 of EC50 for each of the 7 compounds listed.
1. [2H]C([2H])(C)OC(=O)N1C2CCC1CC(N1CCC3(CC1)CNC(=O)C3)C2 (single isomer, unassigned) [Example 2-30 Isomer 2]
2. CCOC(=O)N1C2CCC1CC(N1CCC3(CC1)CNC(=O)O3)C2 (single isomer, unassigned) [Example 2-14 Isomer 2]
3. COC(=O)N1CC2CC(N3CCC4(CC3)CNC(=O)C4)CC1C2 (single isomer, unassigned) [Example 6-1 Isomer 2]
4. CCOC(=O)N1C2CCC1CC(N1CCC3(CC1)OC(=O)NC3CC)C2 (single isomer, unassigned) [Example 2-16 Isomer 2]
5. CC#CCOC(=O)N1[C@@H]2CCC[C@H]1CC(N1CCC3(CC1)CNC(=O)C3)C2 (mixture of isomers)
6. CCOC(=O)N1C2CCC1CC(N1CCC3(CC1)CC(=O)N(CC1CC1)C3)C2 (single isomer, unassigned) [Example 2-28 Isomer 2]
7. CCOC(=O)N1C2CCC1CC(N1CCC3(CC1)CNC(=O)O3)C2 (single isomer, unassigned) [Example 2-14 Isomer 1]

A)
[1.50, 1.60, 1.30, 2.80, 1.50, 2.70, 2.30]

Please give log10 of EC50 for each item listed below.
1. CC#CCOC(=O)N1C2CCC1CC(N1CCC3(CC1)CNC(=O)C3)C2 (single isomer, unassigned) [Example 2-5 Isomer 1]
2. CCOC(=O)N1C2CCC1CC(N1CCC3(CC1)CC(=O)NC3CC)C2 (single isomer, unassigned) [Example 2-8 Isomer 1]
3. O=C1CC2(CCN(C3CC4CCC(C3)N4C(=O)OCCF)CC2)CN1 (single isomer, unassigned) [Example 2-3 Isomer 1]

A)
[1.40, 1.30, 2.60]

----------
assayed.target: human muscarinic M3 receptor (Homo sapiens)
Construct: expressed in transfected cells
Sequence (P20309 whole entry): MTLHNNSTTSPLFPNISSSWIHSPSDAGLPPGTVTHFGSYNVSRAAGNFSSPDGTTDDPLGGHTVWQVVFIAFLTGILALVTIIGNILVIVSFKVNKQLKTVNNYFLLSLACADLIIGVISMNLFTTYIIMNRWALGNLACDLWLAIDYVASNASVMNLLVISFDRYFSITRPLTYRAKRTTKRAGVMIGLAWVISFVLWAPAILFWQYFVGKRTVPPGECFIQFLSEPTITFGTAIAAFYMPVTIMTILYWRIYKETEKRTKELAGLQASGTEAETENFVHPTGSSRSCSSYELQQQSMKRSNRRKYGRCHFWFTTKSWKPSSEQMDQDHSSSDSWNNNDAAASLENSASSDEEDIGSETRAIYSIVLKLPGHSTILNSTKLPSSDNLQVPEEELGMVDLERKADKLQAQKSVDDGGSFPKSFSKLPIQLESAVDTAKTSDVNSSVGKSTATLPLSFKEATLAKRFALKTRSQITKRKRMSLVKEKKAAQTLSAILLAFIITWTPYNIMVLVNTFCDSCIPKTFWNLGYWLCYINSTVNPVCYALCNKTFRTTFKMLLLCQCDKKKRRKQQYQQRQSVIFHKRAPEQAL
protocol.notes: Alphascreen Surefire phospho-ERK1/2 functional assay, M3
Assay type: cell-based
test.parameters: CHO, read-out: % Emax cf. ACh, M3, CHO cells stably expressing human M3, relative to ACh
Field: Emax. Provide a value for each of the molecules that follow.
Numbers only, in %.

Consider the reported Emax for these molecules:
1) [2H]C([2H])(C)OC(=O)N1C2CCC1CC(N1CCC3(CC1)CNC(=O)C3)C2 (single isomer, unassigned) [Example 2-30 Isomer 2] | 16
2) CCOC(=O)N1C2CCC1CC(N1CCCC3(CC1)CNC(=O)C3)C2 (single isomer, unassigned) [Example 9-1 Isomer 2] | 22
3) COC(=O)N1CC2CC(N3CCC4(CC3)CNC(=O)C4)CC1C2 (single isomer, unassigned) [Example 6-1 Isomer 2] | 5
4) CCOC(=O)N1CC2CC(N3CCC4(CC3)CNC(=O)C4)CC1C2 (single isomer, unassigned) [Example 6-2 Isomer 2] | 18

Please state Emax for every molecule in the list that follows.
1. CC#CCOC(=O)N1[C@@H]2CCC[C@H]1CC(N1CCC3(CC1)CNC(=O)C3)C2 (mixture of isomers) [Example 5-3]
2. CCOC(=O)N1C2CCC1CC(N1CCC3(CC1)CNC(=O)O3)C2 (single isomer, unassigned) [Example 2-14 Isomer 2]
3. CC#CCOC(=O)N1C2CCC1CC(N1CCC3(CC1)CNC(=O)C3)C2 (single isomer, unassigned) [Example 2-5 Isomer 1]
4. O=C1CC2(CCN(C3CC4CCC(C3)N4C(=O)OCCF)CC2)CN1 (single isomer, unassigned) [Example 2-3 Isomer 2]
5. CCCN1CC2(CCN(C3CC4CCC(C3)N4C(=O)OCC)CC2)CC1=O (single isomer, unassigned) [Example 2-25 Isomer 2]
6. CCOC(=O)N1C2CCCC1CC(N1CCC3(CC1)CNC(=O)C3)C2 (single isomer, unassigned) [Example 5-1 Isomer 1]

A)
1. 19
2. 0
3. 7
4. 0
5. 12
6. 8

Lab note: each molecule below needs its Emax filled in.
1. CCOC(=O)N1CC2CC(N3CCC4(CC3)CNC(=O)O4)CC1C2 (single isomer, unassigned) [Example 6-3 Isomer 2]
2. [2H]C([2H])([2H])COC(=O)N1C2CCC1CC(N1CCC3(CC1)CNC(=O)C3)C2 (single isomer, unassigned) [Example 2-31 Isomer 2]
3. CCCC1NC(=O)CC12CCN(C1CC3CCC(C1)N3C(=O)OCC)CC2 (single isomer, unassigned) [Example 2-9 Isomer 1]

A)
1: 48; 2: 8; 3: 22
